The measurements presented in this section are drawn from patent US9221834B2.

# EXPERIMENTAL SYSTEM: recombinant CETP (rCETP) (Homo sapiens)
# ASSAY: RTA assay using recombinant CETP (2% RTA)
# Type: biochemical
# EXPERIMENTAL PARAMETERS: RTA assay in 2% human serum; read-out: IC50
A collection of molecules and their measured IC50
Expressed in nM, but write only the number.

Query block: // fetch IC50 for COc1cc(F)c(CCC(=O)O)cc1-c1ccc(N2CC(F)(F)C2)nc1CN1C(=O)O[C@H](c2cc(C(F)(F)F)cc(C(F)(F)F)c2)[C@@H]1C ; system: recombinant CETP (rCETP) (Homo sapiens)
Result block: 24

Query block: # return IC50 of COC(=O)c1coc(-c2ccc(OC)c(-c3ccc(N4CCC4)nc3CN3C(=O)O[C@H](c4cc(C(F)(F)F)cc(C(F)(F)F)c4)[C@@H]3C)c2)c1 (system: recombinant CETP (rCETP) (Homo sapiens))
Result block: 61

Could you now consider this next molecule?
Query block: State, for recombinant CETP (rCETP) (Homo sapiens), measured IC50 of the molecule listed here: Cc1cc(C(=O)O)ccc1-c1cc(-c2cnc(N3CCC3)nc2CN2C(=O)O[C@H](c3cccc(C(F)(F)F)c3)[C@@H]2C)ccc1F
Result block: 76

###

# EXPERIMENTAL SYSTEM: recombinant CETP (rCETP) (Homo sapiens, UniProt P11597)
# Sequence (P11597 18-493): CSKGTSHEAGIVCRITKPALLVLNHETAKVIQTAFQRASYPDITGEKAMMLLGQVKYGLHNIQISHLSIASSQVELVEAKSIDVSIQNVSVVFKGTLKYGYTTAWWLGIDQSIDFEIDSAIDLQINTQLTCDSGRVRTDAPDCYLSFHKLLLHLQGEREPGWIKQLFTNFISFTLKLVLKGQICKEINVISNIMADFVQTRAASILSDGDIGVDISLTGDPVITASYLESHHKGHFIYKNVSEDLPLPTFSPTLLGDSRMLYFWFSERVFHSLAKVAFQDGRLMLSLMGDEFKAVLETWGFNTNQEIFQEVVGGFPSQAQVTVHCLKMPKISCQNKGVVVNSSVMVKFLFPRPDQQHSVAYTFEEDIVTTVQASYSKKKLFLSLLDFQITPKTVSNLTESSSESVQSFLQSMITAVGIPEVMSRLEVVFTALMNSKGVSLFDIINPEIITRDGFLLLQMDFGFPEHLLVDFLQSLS
# ASSAY: RTA assay using recombinant CETP (2% RTA)
# Type: biochemical
# EXPERIMENTAL PARAMETERS: RTA assay in 2% human serum; read-out: IC50
MEASURED ENDPOINT: pIC50
Scale: negative log10 of molar concentration, which is what pIC50 denotes.

Query block: Look up and report measured pIC50 for this entry: COc1ccc([C@H]2C[C@@H](CC(=O)O)C2)cc1-c1ccc(N2CCC2)nc1CN1C(=O)O[C@H](c2cc(C(F)(F)F)cc(C(F)(F)F)c2)[C@@H]1C
Result block: 8.00

Query block: Determine its reported pIC50: COc1ccc([C@@H]2C[C@H]2C(=O)O)cc1-c1ccc(N2CCC2)nc1CN1C(=O)O[C@H](c2cccc(C(F)(F)F)c2)[C@@H]1C
Result block: 7.27

Query block: Return reported pIC50. Input compound: CCOC(=O)c1csc(-c2ccc(OC)c(-c3ccc(N4CCC4)nc3CN3C(=O)O[C@H](c4cc(C(F)(F)F)cc(C(F)(F)F)c4)[C@@H]3C)c2)n1
Result block: 6.72

Query block: Give the measured pIC50 for COc1ccc(-c2ccc(C(=O)O)cc2C)cc1-c1ccc(N2CCC2)nc1CN1C(=O)O[C@H](c2cc(C(F)(F)F)cc(C(F)(F)F)c2)[C@@H]1C
Result block: 8.15

Query block: Using known records, supply pIC50 for CCOC(=O)CCc1ccc(OC)c(-c2ccc(N3CCC3)nc2CN2C(=O)O[C@H](c3cccc(C)c3)[C@@H]2C)c1
Result block: 6.63

// switching to the query compound
Query block: Query pIC50 for COC(=O)C[C@H]1C[C@@H](c2ccc(OC)c(-c3ccc(N4CCC4)nc3CN3C(=O)O[C@H](c4cc(C(F)(F)F)cc(C(F)(F)F)c4)[C@@H]3C)c2)C1
Result block: 7.85
